Reference source: the supplement of paper PMC11061612

- System: SUP-T1 (T-Lymphoblastic Leukemia)
- TEST_PROTOCOL: combination Emax (second highest fraction inhibited in the dose matrix, 72 h); higher = more inhibition; extreme values may be limits of the assay
PROPERTY: combination Emax
Give a plain numeric answer without units written out.

Asked: combination Emax lookup needed for CC1(C)CCC(CN2CCN(c3ccc(C(=O)NS(=O)(=O)c4ccc(NCC5CCOCC5)c([N+](=O)[O-])c4)c(Oc4cnc5[nH]ccc5c4)c3)CC2)=C(c2ccc(Cl)cc2)C1 [Venetoclax] + COc1cc(Nc2ncc3c(n2)-c2ccc(Cl)cc2C(c2c(F)cccc2OC)=NC3)ccc1C(=O)O [Alisertib] (first compound max 1 µM, 7x7, partner max 10 µM) , thanks.
Given back: 0.611

Asked: Need combination Emax, item COc1nnc2ccc(N3CCC(c4ccc(OCCN5CCN(C)C(=O)[C@H]5C)cc4)CC3)nn12 [AZD5153] + CC1(C)CCC(CN2CCN(c3ccc(C(=O)NS(=O)(=O)c4ccc(NCC5CCOCC5)c([N+](=O)[O-])c4)c(Oc4cnc5[nH]ccc5c4)c3)CC2)=C(c2ccc(Cl)cc2)C1 [Venetoclax] (first compound max 1 µM, 7x7, partner max 1 µM)
Given back: 0.745

Asked: Query (molecule): C=CCn1c(=O)c2cnc(Nc3ccc(N4CCN(C)CC4)cc3)nc2n1-c1cccc(C(C)(C)O)n1 [AZD1775] + CCc1c2c(nc3ccc(O)cc13)-c1cc3c(c(=O)n1C2)COC(=O)[C@]3(O)CC [SN-38] (first compound max 1 µM, partner max 0.3 µM) ; field requested: combination Emax
Given back: 0.84

Asked: Look up combination Emax for this molecule: CN(CCO)CC[C@H](CSc1ccccc1)Nc1ccc(S(=O)(=O)NC(=O)c2ccc(N3CCC([C@@H](O)c4ccccc4-c4ccc(Cl)cc4)CC3)cc2)cc1S(=O)(=O)C(F)(F)F [AZD4320] + Nc1ccn([C@@H]2O[C@H](CO)[C@@H](O)C2(F)F)c(=O)n1 [Gemcitabine] (first compound max 1 µM, 7x7, partner max 0.3 µM)
Given back: 0.846

Asked: Find the recorded combination Emax belonging to CC1(C)CCC(CN2CCN(c3ccc(C(=O)NS(=O)(=O)c4ccc(NCC5CCOCC5)c([N+](=O)[O-])c4)c(Oc4cnc5[nH]ccc5c4)c3)CC2)=C(c2ccc(Cl)cc2)C1 [Venetoclax] + CN(C)CCCOc1ccc(-c2ccc3ncc4c(c3c2)n(C2CCOCC2)c(=O)n4C)cn1 [AZD0156] (first compound max 1 µM, 7x7, partner max 1 µM) and report it.
Given back: 0.616

Asked: Please report the recorded combination Emax for NC1(C(=O)N[C@@H](CCO)c2ccc(Cl)cc2)CCN(c2ncnc3[nH]ccc23)CC1 [Capivasertib] + C[C@@H]1COCCN1C2=NC(=NC(=C2)C3(CC3)[S@](=N)(=O)C)C4=C5C=CNC5=NC=C4 [AZD6738] (first compound max 10 µM, 7x7, partner max 10 µM) .
Given back: 0.866
